System: vaccinia virus
Assay type: cell-based
MEASURED METRIC: Class category of infected monolayers in plaque assay

Take a look at these entries with their results.
Cn1c(=O)c(-c2c(Cl)cccc2Cl)cc2cnc(Nc3cccc(N)n3)nc21: Class III
CN(C)CCNC(=O)c1ccc(-c2cnc3c(Nc4ccc(Oc5ccccc5)cc4)nccn23)cc1: Class III
CN1CCOc2cc(/C=C3\SC(=O)NC3=O)ccc21 [AS-605091, reference compound]: Class III
COc1ccccc1Nc1cc(-c2ccc(O)cc2)ncn1: Class III
COc1cc(OC)cc(-c2ccc3c(-c4ccc(F)cc4)n[nH]c3n2)c1: Class II

// lookup Class category of infected monolayers in plaque assay for "Cn1c(=O)c(-c2c(Cl)cccc2Cl)cc2cnc(NC3CCN(Cc4ccccc4)CC3)nc21"
Class III

Which Class category of infected monolayers in plaque assay reading was recorded for the molecule "Cc1cc(-c2ccc3c(-c4ccc(Cl)c(F)c4)n[nH]c3n2)cc(C)c1O" ?
Class II

// Class category of infected monolayers in plaque assay lookup, key: "CC(=O)Nc1cccc(-c2ccc3c(-c4ccc(C#N)cc4)n[nH]c3n2)c1"
Class III

Which measured Class category of infected monolayers in plaque assay value corresponds to "O=C(NCCO)c1cccc(-c2cnc3c(NCc4ccc(F)cc4)nccn23)c1" ?
Class III

###

System: vaccinia virus
Assay type: cell-based
MEASURED METRIC: Class category of infected monolayers in plaque assay

Reference set (5 entries):
COc1ccccc1NS(=O)(=O)c1cccc(NC(=O)CCOc2ccc3c(=O)[nH]ccc3c2)c1: Class II
COc1cccc(-c2cnc3c(Nc4ccccc4)nccn23)c1: Class III
O=C(NCCO)c1cccc(-c2cnc3c(NCc4cccs4)nccn23)c1: Class III
COc1cc(-c2cnc3c(Nc4ccccc4)nccn23)ccc1O: Class II
COc1ccc(-c2nc(C(N)=O)c3[nH]c(=O)n(-c4ccc(C)cc4)c3n2)cc1OC: Class III

What Class category of infected monolayers in plaque assay value was documented for this molecule, "O=C(Nc1cccc(-c2ccc3nnc(-c4cccs4)n3n2)c1)c1cccc([N+](=O)[O-])c1" ?
Class III

Could you share which Class category of infected monolayers in plaque assay value was measured for "Fc1ccc(CNc2nccn3c(Br)cnc23)cc1" ?
Class III

What Class category of infected monolayers in plaque assay value was documented for this molecule, "Cc1ccc(NC(=O)c2ccc(CN3CCN(Cc4ccc(F)cc4)CC3)cc2)cc1Nc1nccc(-c2cccnc2)n1" ?
Class III

Suppose we examine the molecule "Cn1c(=O)c(-c2c(Cl)cccc2Cl)cc2cnc(NC3CCCCC3)nc21" ; what Class category of infected monolayers in plaque assay value has been reported?
Class III

###

Test system: vaccinia virus; as to VACCINIA PLAQUE ASSAY 2: test concentration or dose not given here
Format: cell-based
MEASURED METRIC: VACCINIA PLAQUE ASSAY 2

Cn1c(=O)c(-c2c(Cl)cccc2Cl)cc2cnc(Nc3cccc(N)n3)nc21: NO PLAQUES
CC(C)c1ccc(Nc2nccn3c(Br)cnc23)cc1: NO PLAQUES

###

System: vaccinia virus; as to VACCINIA PLAQUE ASSAY 2: test concentration or dose not given here
Format: cell-based
MEASURED METRIC: VACCINIA PLAQUE ASSAY 2

Here are 4 compounds together with their reported answers.
CC(=O)Nc1cccc(-c2ccc3c(-c4ccc(Cl)c(F)c4)n[nH]c3n2)c1: PINPOINT PLAQUES
Nc1cccc(-c2ccc3nnc(-c4ccco4)n3n2)c1: PINPOINTS
Cc1ccc(-c2ccnc(Nc3cc(NC(=O)c4ccc(CN5CCN(C)CC5)cc4)ccc3C)n2)cn1: SMALL PLAQUES
COc1ccccc1Nc1cc(-c2ccc(O)cc2)ncn1: PINPOINT PLAQUES

Which VACCINIA PLAQUE ASSAY 2 reading was recorded for the compound "O=C(NCCO)c1cccc(-c2cnc3c(NCc4ccc(F)cc4)nccn23)c1" ?
NO PLAQUES

Any idea what its VACCINIA PLAQUE ASSAY 2 is? The compound is "O=C(Nc1cccc(-c2ccc3nnc(-c4cccs4)n3n2)c1)c1cccc([N+](=O)[O-])c1"
SMALL PLAQUES

Value lookup for VACCINIA PLAQUE ASSAY 2; key = CN1CCOc2cc(/C=C3\SC(=O)NC3=O)ccc21 [AS-605091, reference compound]
PINPOINT PLAQUES

I am curious: what VACCINIA PLAQUE ASSAY 2 value has been reported for "Cc1cc(-c2ccc3c(-c4ccc(Cl)c(F)c4)n[nH]c3n2)cc(C)c1O" ?
SMALLER PLAQUES THAN WT

Could you tell me which VACCINIA PLAQUE ASSAY 2 is on file for "O=C(Nc1cccc(-c2ccc3nncn3n2)c1)c1cccc([N+](=O)[O-])c1" ?
PINPOINTS

Consider the compound shown here: "COc1cccc(-c2cnc3c(Nc4ccccc4)nccn23)c1" What is its recorded VACCINIA PLAQUE ASSAY 2?
NO PLAQUES

# VACCINIA PLAQUE ASSAY 2 lookup, item "CCOC(=O)c1ccc(-c2n[nH]c3nc(-c4cccc(NC(C)=O)c4)ccc23)cc1"
PINPOINT PLAQUES

I'd like to know its VACCINIA PLAQUE ASSAY 2. The compound in question is "COc1cc(-c2cnc3c(Nc4ccccc4)nccn23)ccc1O"
SMALL PLAQUES

Any idea what its VACCINIA PLAQUE ASSAY 2 is? The compound is "COc1ccc(Nc2nccn3c(-c4cccc(C(N)=O)c4)cnc23)cc1"
SLIGHTLY SMALLER PLAQUES

VACCINIA PLAQUE ASSAY 2 lookup needed for "CC(=O)Nc1cccc(-c2ccc3c(-c4ccc(F)c(C)c4)n[nH]c3n2)c1" , thanks.
NO PLAQUES

Name the reported VACCINIA PLAQUE ASSAY 2 value associated with the compound "CC(=O)Nc1ccc(-c2ccc3c(-c4ccc(Br)c(F)c4)n[nH]c3n2)cc1"
NO PLAQUES
